Task for the reader: assign each of the following binders its reported SPOT intensity.
target: GST; assay: SPOT array; details: median of control spots 978
Simply state the number, no unit and no words.

Record summary for `NRPAIRIPSLKKPAL` : reported SPOT intensity = 1

Record summary for `KTKQQKPAIPQKKSF` : reported SPOT intensity = 1

Record summary for `RKLRTVPGVPLIHLT` : reported SPOT intensity = 1

Record summary for `EAEEAAPQLPSRSSA` : reported SPOT intensity = 0

Record summary for `QLLNPNRRAPRRPLS` : reported SPOT intensity = 2

Record summary for `LKRITSPPLPPRADS` : reported SPOT intensity = 0

Record summary for `IKKRNKIRLPSGSPE` : reported SPOT intensity = 3

Record summary for `RSRRSSFAYPQQVAI` : reported SPOT intensity = 0

Record summary for `APPPPPRRATPEKKP` : reported SPOT intensity = 1

Record summary for `RSLRKRPTSPSISGS` : reported SPOT intensity = 3

Record summary for `PALPSLPPPPLLNVD` : reported SPOT intensity = 0

Record summary for `RRSKSLPTTPGIRSG` : reported SPOT intensity = 0

Record summary for `RRRDFGAPANKRPRR` : reported SPOT intensity = 3

Record summary for `YRRKSIPFAPHQITA` : reported SPOT intensity = 1

Record summary for `RMVRRRPLRVQFSAR` : reported SPOT intensity = 9

Record summary for `LKHGWKPLRPIKLIS` : reported SPOT intensity = 0

Record summary for `RSVKRPRRAPRPVVS` : reported SPOT intensity = 4

Record summary for `NNQRRKPLLLNIGDH` : reported SPOT intensity = 0

Record summary for `NLDRSKISLPDFDDE` : reported SPOT intensity = 36

Record summary for `NIKVLLNPKLGKPVK` : reported SPOT intensity = 0

Record summary for `SRQAIPPPVPNRPGG` : reported SPOT intensity = 0

Record summary for `RKRAPTPPAPSRSEK` : reported SPOT intensity = 1

Record summary for `EREKALPPIPFTTTL` : reported SPOT intensity = 0

Record summary for `GRSRLFPHSPLGRSS` : reported SPOT intensity = 0
